TARGET OR TEST SYSTEM: Muscarinic acetylcholine receptor M2 (Homo sapiens)
Sequence (whole entry): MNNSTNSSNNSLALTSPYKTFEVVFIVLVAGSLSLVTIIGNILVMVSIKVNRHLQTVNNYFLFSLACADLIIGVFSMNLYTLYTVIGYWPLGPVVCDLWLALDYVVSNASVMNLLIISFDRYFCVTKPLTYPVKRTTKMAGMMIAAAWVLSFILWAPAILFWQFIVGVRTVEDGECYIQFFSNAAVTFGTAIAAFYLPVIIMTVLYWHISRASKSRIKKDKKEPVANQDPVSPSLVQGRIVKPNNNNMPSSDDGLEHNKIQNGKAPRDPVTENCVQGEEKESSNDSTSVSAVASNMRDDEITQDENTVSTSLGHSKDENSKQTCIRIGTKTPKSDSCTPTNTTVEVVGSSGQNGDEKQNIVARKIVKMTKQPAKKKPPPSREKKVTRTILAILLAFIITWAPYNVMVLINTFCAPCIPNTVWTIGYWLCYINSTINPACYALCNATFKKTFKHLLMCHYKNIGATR
METHOD: Ratio of binding affinity against Muscarinic acetylcholine receptor M5 to that of Muscarinic acetylcholine receptor M2
MEASURED ATTRIBUTE: Ratio
Answer with a bare number; do not write a unit.

CCOCC(=O)N1CCC(N2CCC(Oc3ccc(S(=O)(=O)c4ccc5c(c4)OCO5)cc3)CC2)CC1
13
O=C(c1cccc2ccccc12)N1CCC(N2CCC(Oc3ccc(S(=O)(=O)c4ccc5c(c4)OCO5)cc3)CC2)CC1
50
CCS(=O)(=O)N1CCC(N2CCC(Oc3ccc(S(=O)(=O)c4ccc5c(c4)OCO5)cc3)CC2)CC1
46
Cc1cccc(C(=O)N2CCC(N3CCC(Oc4ccc(S(=O)(=O)c5ccc6c(c5)OCO6)cc4)CC3)CC2)c1C
56

Exercise: Would you mind telling me what Ratio value was observed for O=C(c1cccc2cccnc12)N1CCC(N2CCC(Oc3ccc(S(=O)(=O)c4ccc5c(c4)OCO5)cc3)CC2)CC1 ?
Key: 4

Exercise: O=C(c1ccccc1)N1CCC(N2CCC(Oc3ccc(S(=O)(=O)c4ccc5c(c4)OCO5)cc3)CC2)CC1 ?
Key: 15

Exercise: Please do the same for CCCS(=O)(=O)N1CCC(N2CCC(Oc3ccc(S(=O)(=O)c4ccc5c(c4)OCO5)cc3)CC2)CC1 as well.
Key: 39
